Test system: heart rate
Assay: Effect on heart rate of the anesthetized cat after intravenous administration
Type: in vivo
Conditions: i.v., graphic extrapolation
quantity.name: ED10 (dose leading to a 10% alteration of the heart rate)

Consider the worked cases shown below.
smiles.str | experimental.value
CCN(CCCN1c2ccccc2N(C)C(=O)c2cccnc21)C(C)C.Cl | 1,350 γ/kg
CC(C)N(CCCN1c2ccccc2N(C)C(=O)c2cccnc21)C(C)C.Cl | 1,950 γ/kg
CC(C)N(CCN1c2ccccc2N(C)C(=O)c2cccnc21)C(C)C.Cl | 1,300 γ/kg
CN1C(=O)c2ccccc2N(CCCN2CCCCC2)c2ncccc21.Cl | 1,100 γ/kg
CN1C(=O)c2ccccc2N(CCCN2CCCCCC2)c2ncccc21.Cl | 1,200 γ/kg
CN1C(=O)c2cccnc2N(CCCN2CCCC2)c2ccccc21.Cl | 1,900 γ/kg
CCNCCCN1c2ccccc2N(C)C(=O)c2cccnc21.Cl | 1,050 γ/kg
CN(C)CCCN1c2ccccc2N(C)C(=O)c2cccnc21.Cl | > 4,000 γ/kg

For each of the molecules below, state ED10 (dose leading to a 10% alteration of the heart rate).
1. CN1C(=O)c2ccccc2N(CCCN2CCCC2)c2ncccc21.Cl
2. CCN(CC)CCCN1c2ccccc2N(C)C(=O)c2cccnc21.Cl
3. CN1C(=O)c2cccnc2N(CCN2CCCC2)c2ccccc21.Cl

Output:
["2,300 γ/kg", "2,100 γ/kg", "> 4,000 γ/kg"]

Please state ED10 (dose leading to a 10% alteration of the heart rate) for every molecule in the list that follows.
1. CN1C(=O)c2cccnc2N(CCCN2CCCCC2)c2ccccc21.Cl
2. CC(C)N(CCCN1c2ccccc2C(=O)N(C)c2cccnc21)C(C)C.Cl

Output:
1,400 γ/kg
1,400 γ/kg

---

Experiment: Acute toxicity after i.v. administration in NMRI-mice (Litchfield and Wilcoxon)
Settings: mouse, in vivo, iv, both sexes, deaths within 14 days, read-out: LD50 in the mouse after i.v. application
quantity.name: LD50 at 336 h (mg/kg)
One number for each entry, in mg/kg.

In the examples that follow, each entry is paired with its recorded LD50 at 336 h.
compound | unit.abbreviation | LD50 at 336 h
CC(C)N(CCN1c2ccccc2C(=O)N(C)c2cccnc21)C(C)C.Cl [Q] | mg/kg | 27
CN1C(=O)c2ccccc2N(CCCN2CCCCCC2)c2ncccc21.Cl [W] | mg/kg | 13.4
CN(C)CCN1c2ccccc2N(C)C(=O)c2cccnc21.Cl [B] | mg/kg | 25.8
CN(C)CCCN1c2ccccc2N(C)C(=O)c2cccnc21.Cl [C] | mg/kg | 30.7
CC(C)NCCCN1c2ccccc2N(C)C(=O)c2cccnc21.Cl [F] | mg/kg | 43.5

Please look at the items below and tell me LD50 at 336 h for each one, in order.
1. CC(C)N(CCCN1c2ccccc2C(=O)N(C)c2cccnc21)C(C)C.Cl [T]
2. CN1C(=O)c2cccnc2N(CCN2CCCC2)c2ccccc21.Cl [O]
3. CN1C(=O)c2cccnc2N(CCCN2CCCC2)c2ccccc21.Cl [L]
4. CN1C(=O)c2ccccc2N(CCCN2CCCC2)c2ncccc21.Cl [U]

Output:
[22.2, 11.4, 22.7, 22.9]

Input: Need LD50 at 336 h of CN1C(=O)c2ccccc2N(CCCN2CCCCC2)c2ncccc21.Cl [V] , thanks.
Output: 13.4
